Subject of test: cGMP-specific 3',5'-cyclic phosphodiesterase (Homo sapiens, UniProt O76074)
pIC50: −log10 of the molar value.
Label Satisfied when pIC50 is at or above 8; otherwise label Not satisfied.

| Compound smiles | Group |
| --- | --- |
| CCCOc1ncc(C(C)=O)cc1-c1nc(=O)c2nn(C3CNC3)c(CCC)c2[nH]1 | Not satisfied |
| CCCCOc1ncc(C(C)=O)cc1-c1nc2c(CC)n(C3CNC3)nc2c(=O)[nH]1 | Not satisfied |
| CCc1c2nc(-c3cc(C(C)=O)cnc3OCCOC)nc(O)c2nn1CCN1CCOCC1 | Not satisfied |
| CCc1c2nc(-c3cc(S(=O)(=O)N4CCN(CC)CC4)cnc3OCCOC)[nH]c(=O)c2nn1Cc1ccccn1 | Satisfied |
| CCCCOc1ncc(C(C)=O)cc1-c1nc2c(CC)n(C3CN(CC)C3)nc2c(=O)[nH]1 | Satisfied |
| CCCCOc1ncc(C(C)=O)cc1-c1nc2c(CC)n(C3CCN(CC)CC3)nc2c(=O)[nH]1 | Satisfied |
| CCCc1nn(C)c2c(=O)[nH]c(-c3cc(C(=O)CN4CCOCC4)ccc3OCC)nc12 | Satisfied |
| CCCCOc1ncc(C(C)=O)cc1-c1nc(O)c2nn(Cc3nccn3C)c(CC)c2n1 | Satisfied |
| CCCCOc1ncc(C(C)=O)cc1-c1nc2c(CC)n(C3CCNCC3)nc2c(=O)[nH]1 | Not satisfied |
| CCCOc1ncc(C(C)=O)cc1-c1nc2c(CC)n(C3CN(C(C)C)C3)nc2c(=O)[nH]1 | Satisfied |

###

Here's a batch of molecules along with measured IC50 for cGMP-specific 3',5'-cyclic phosphodiesterase (Homo sapiens, UniProt O76074).

| Compound smiles | IC50 [nM] |
| --- | --- |
| CCCOc1ncc(C(C)=O)cc1-c1nc(O)c2nn(C3CN(C)C3)c(CCC)c2n1 | 14.7 |
| CCCOc1ncc(C(C)=O)cc1-c1nc2c(CC)n(C3CCNCC3)nc2c(=O)[nH]1 | 7 |
| CCCCOc1ncc(C(C)=O)cc1-c1nc2c(CC)n(C3CN(C)C3)nc2c(=O)[nH]1 | 6.4 |
| CCCCOc1ncc(C(C)=O)cc1-c1nc2c(CC)n(C3CCN(C)CC3)nc2c(=O)[nH]1 | 9.1 |
| CCCOc1ncc(C(C)=O)cc1-c1nc2c(CC)n(C3CCN(CC)CC3)nc2c(=O)[nH]1 | 13 |
| CCCOc1ncc(C(C)=O)cc1-c1nc2c(CC)n(C3CN(CC)C3)nc2c(=O)[nH]1 | 7.1 |
